System: MDA-MB-468
Experiment: phospho-S6 immunofluorescence (DAPI-normalised), per-plate z-score; higher = higher phospho-S6 signal (less pathway suppression)
Conditions: co-treatment: GDC0941 450 nM; 24 h
Where a name gives a salt, the structure may show the parent alone.
Collected phospho-S6 immunofluorescence (z-score) values appear next to each entry.
Give your answer as a number; write no unit.

Consider the reported phospho-S6 immunofluorescence (z-score) for these compounds:
compound="O=C(Nc1ccc([N+](=O)[O-])cc1O)Nc1ccccc1Br (compound 10 µM)" value=-1.44
compound="CCc1c(C(=O)NCCc2ccc(N3CCCCC3)cc2)[nH]c2ccc(Cl)cc12 (compound 10 µM)" value=-1.02
compound="Cc1ccc(OCC(O)C(C)NC(C)C)c2c1CCC2 (stereo not given) [ICI 118,551 (hydrochloride)] (compound 10 µM)" value=1.2
compound="CC(C)(O)c1ccccc1CC[C@@H](SCC1(CC(=O)O)CC1)c1cccc(/C=C/c2ccc3ccc(Cl)cc3n2)c1 [Montelukast (sodium)] (compound 10 µM)" value=0.45
compound="C[C@]12CCC(=O)C=C1CC[C@@H]1[C@@H]2C(=O)C[C@@]2(C)[C@H]1CC[C@]2(O)C(=O)CO [Cortisone] (compound 10 µM)" value=0.47

INPUT: Assign phospho-S6 immunofluorescence (z-score) to the following record: CCCc1nc(C(C)(C)O)c(C(=O)OCc2oc(=O)oc2C)n1Cc1ccc(-c2ccccc2-c2nnn[nH]2)cc1 [Olmesartan (medoxomil)] (compound 10 µM)
OUTPUT: -0.4

INPUT: Respond only with phospho-S6 immunofluorescence (z-score) recorded for COc1ccccc1OCCNCC(O)COc1cccc2[nH]c3ccccc3c12 (stereo not given) [Carvedilol] (compound 10 µM)
OUTPUT: -4.07

INPUT: Tell us which phospho-S6 immunofluorescence (z-score) value is on record for O=C(c1ccc(F)cc1)C1CCN(CCn2c(=O)[nH]c3ccccc3c2=O)CC1 [Ketanserin (tartrate)] (compound 10 µM)
OUTPUT: 0.46

INPUT: Look up and report measured phospho-S6 immunofluorescence (z-score) for this entry: COc1ccccc1N1CCN(CCN(C(=O)C2CCCCC2)c2ccccn2)CC1 (compound 10 µM)
OUTPUT: -0.49

INPUT: Look up phospho-S6 immunofluorescence (z-score) of O=C1NCCN1CCN1CCC(c2cn(-c3ccc(F)cc3)c3ccc(Cl)cc23)CC1 [Sertindole] (compound 10 µM) and report it.
OUTPUT: -4.7

INPUT: Return phospho-S6 immunofluorescence (z-score) (reported value) for this compound: OC(CNCC(O)C1CCc2cc(F)ccc2O1)C1CCc2cc(F)ccc2O1 (stereo not given) [Nebivolol (hydrochloride)] (compound 10 µM)
OUTPUT: -2.5

INPUT: // Input: O=C(O)Cn1c2c(c3cc(F)ccc31)CN(C(=O)c1cccc3ccccc13)CC2 [Setipiprant] (compound 10 µM) . Output its phospho-S6 immunofluorescence (z-score) only.
OUTPUT: 0.42

INPUT: Return the recorded phospho-S6 immunofluorescence (z-score) value; entry: Nc1ncnc2c1ncn2C1CCCO1 (stereo not given) (compound 10 µM)
OUTPUT: 0.45

INPUT: In one line, give reported phospho-S6 immunofluorescence (z-score) of the entry COc1ccc(C2CC(c3ccccc3)=NN2c2ccc(S(N)(=O)=O)cc2)cc1 (stereo not given) (compound 10 µM) .
OUTPUT: -3.22

INPUT: Given Cn1c(SCC(=O)N2CCC[C@H]2C(=O)Nc2ccccc2-c2ccccc2)nc2ccccc21 (compound 10 µM) , respond with its phospho-S6 immunofluorescence (z-score).
OUTPUT: 0.08

Origin of values: the supplement of paper PMC7411640
